system: Jurkat; test: Anticancer activity against human Jurkat cells assessed as viable cells at 10^-4 M after 24 hrs by XTT assay relative to control; format: functional; conditions: read-out: Activity
Listing of recorded viability at 100 µM by entry.
Give a bare numeral; the unit % is implied.

Worked cases, answers included:
O=C(NC(=S)Nc1ccc(Br)cc1)c1nn(-c2ccccc2)c(-c2ccccc2)c1C(=O)c1ccccc1 ... 78.1
NC(=O)c1ccc(NC(=S)NC(=O)c2nn(-c3ccccc3)c(-c3ccccc3)c2C(=O)c2ccccc2)cc1 ... 100
COc1ccc(NC(=S)NC(=O)c2nn(-c3ccccc3)c(-c3ccccc3)c2C(=O)c2ccccc2)cc1 ... 31.1
O=C(NC(=S)Nc1ncccn1)c1nn(-c2ccccc2)c(-c2ccccc2)c1C(=O)c1ccccc1 ... 86.2
O=C(NC(=S)Nc1ccc(F)cc1)c1nn(-c2ccccc2)c(-c2ccccc2)c1C(=O)c1ccccc1 ... 100
Cc1ccccc1NC(=S)NC(=O)c1nn(-c2ccccc2)c(-c2ccccc2)c1C(=O)c1ccccc1 ... 100
O=C(NC(=S)Nc1cccc2ccccc12)c1nn(-c2ccccc2)c(-c2ccccc2)c1C(=O)c1ccccc1 ... 36.4

Next, consider the following compound.
Form field viability at 100 µM, entry `O=C(NC(=S)Nc1ccccc1)c1nn(-c2ccccc2)c(-c2ccccc2)c1C(=O)c1ccccc1` : 23.3

* * *

Listing of recorded viability at 100 µM by entry.
system: Jurkat; test: Anticancer activity against human Jurkat cells assessed as viable cells at 10^-4 M after 24 hrs by XTT assay relative to control; assay type: functional; conditions: read-out: Activity

Worked cases, answers included:
Cc1ccc(NC(=S)NC(=O)c2nn(-c3ccccc3)c(-c3ccccc3)c2C(=O)c2ccccc2)cc1 ... 30%
O=C(NC(=S)Nc1ccc(Cl)cc1)c1nn(-c2ccccc2)c(-c2ccccc2)c1C(=O)c1ccccc1 ... 57.3%

Next, consider the following compound.
Form field viability at 100 µM, entry `O=C(NC(=S)NCc1ccccc1)c1nn(-c2ccccc2)c(-c2ccccc2)c1C(=O)c1ccccc1` : 36.6%
